Reported pIC50 values for the following compounds.
System: Li-7
Experiment Notes: Cell proliferation assay (Alamar Blue)
Type: cell-based
Condition Context: 144 h; Li-7 liver cancer cell line; 6 days
pIC50: −log10 of the molar value.
Quantity Measured: pIC50

>>> experimental_value("Cc1ccc(F)c(NC(=O)Nc2ccc(-c3cccc4c3c(N)nn4C(=O)CCCCCNC(=O)C[C@H](N)C(=O)N[C@@H](CCC(=O)N[C@@H](CCC(=O)N[C@@H](CCC(=O)N[C@@H](CCC(=O)O)C(=O)O)C(=O)O)C(=O)O)C(=O)O)cc2)c1")
4.23
>>> experimental_value("Cc1ccc(F)c(NC(=O)Nc2ccc(-c3cccc4c3c(N)nn4C(=O)CCCCCNC(=O)C[C@H](N)C(=O)N[C@@H](CCC(=O)O)C(=O)O)cc2)c1")
4.33
>>> experimental_value("Cc1ccc(F)c(NC(=O)Nc2ccc(-c3cccc4[nH]nc(N)c34)cc2)c1 [Linifanib, reference compound]")
5.27
>>> experimental_value("Cc1ccc(F)c(NC(=O)Nc2ccc(-c3cccc4c3c(N)nn4C(=O)C[C@H](N)C(=O)N[C@@H](CCC(=O)N[C@@H](CCC(=O)N[C@@H](CCC(=O)N[C@@H](CCC(=O)N[C@@H](CCC(=O)N[C@@H](CCC(=O)N[C@@H](CCC(=O)N[C@@H](CCC(=O)N[C@@H](CCC(=O)O)C(=O)O)C(=O)O)C(=O)O)C(=O)O)C(=O)O)C(=O)O)C(=O)O)C(=O)O)C(=O)O)cc2)c1")
5.00
>>> experimental_value("Cc1ccc(F)c(NC(=O)Nc2ccc(-c3cccc4c3c(N)nn4C(=O)C[C@H](N)C(=O)N[C@@H](CCC(=O)O)C(=O)O)cc2)c1")
5.27

====

Reported IC50 values for the following compounds.
Test system: NCl-H2170
Experiment Notes: Cell proliferation assay (Alamar Blue)
Type: cell-based
Condition Context: 144 h; NCl-H2170 tumor cell line; 6 days
Quantity Measured: IC50

>>> experimental_value("Cc1ccc(F)c(NC(=O)Nc2ccc(-c3cccc4c3c(N)nn4C(=O)C[C@H](N)C(=O)N[C@@H](CCC(=O)O)C(=O)O)cc2)c1")
"0.97 µM"
>>> experimental_value("Cc1ccc(F)c(NC(=O)Nc2ccc(-c3cccc4c3c(N)nn4C(=O)C[C@H](N)C(=O)N[C@@H](CCC(=O)N[C@@H](CCC(=O)N[C@@H](CCC(=O)N[C@@H](CCC(=O)N[C@@H](CCC(=O)N[C@@H](CCC(=O)N[C@@H](CCC(=O)N[C@@H](CCC(=O)N[C@@H](CCC(=O)O)C(=O)O)C(=O)O)C(=O)O)C(=O)O)C(=O)O)C(=O)O)C(=O)O)C(=O)O)C(=O)O)cc2)c1")
"7.89 µM"
>>> experimental_value("Cc1ccc(F)c(NC(=O)Nc2ccc(-c3cccc4c3c(N)nn4C(=O)C[C@H](N)C(=O)O)cc2)c1")
"1.24 µM"
>>> experimental_value("Cc1ccc(F)c(NC(=O)Nc2ccc(-c3cccc4c3c(N)nn4C(=O)CCCCCCCCCCCNC(=O)C[C@H](N)C(=O)N[C@@H](CCC(=O)N[C@@H](CCC(=O)N[C@@H](CCC(=O)N[C@@H](CCC(=O)O)C(=O)O)C(=O)O)C(=O)O)C(=O)O)cc2)c1")
"51.9 µM"
>>> experimental_value("Cc1ccc(F)c(NC(=O)Nc2ccc(-c3cccc4[nH]nc(N)c34)cc2)c1 [Linifanib, reference compound]")
"4 µM"
>>> experimental_value("Cc1ccc(F)c(NC(=O)Nc2ccc(-c3cccc4c3c(N)nn4C(=O)C[C@H](N)C(=O)N[C@@H](CCC(=O)N[C@@H](CCC(=O)N[C@@H](CCC(=O)N[C@@H](CCC(=O)O)C(=O)O)C(=O)O)C(=O)O)C(=O)O)cc2)c1")
"3.46 µM"
>>> experimental_value("Cc1ccc(F)c(NC(=O)Nc2ccc(-c3cccc4c3c(N)nn4C(=O)CCCCCCCCCCCNC(=O)C[C@H](N)C(=O)N[C@@H](CCC(=O)N[C@@H](CCC(=O)N[C@@H](CCC(=O)N[C@@H](CCC(=O)N[C@@H](CCC(=O)N[C@@H](CCC(=O)N[C@@H](CCC(=O)N[C@@H](CCC(=O)N[C@@H](CCC(=O)O)C(=O)O)C(=O)O)C(=O)O)C(=O)O)C(=O)O)C(=O)O)C(=O)O)C(=O)O)C(=O)O)cc2)c1")
"84 µM"
>>> experimental_value("Cc1ccc(F)c(NC(=O)Nc2ccc(-c3cccc4c3c(N)nn4C(=O)CCCCCNC(=O)C[C@H](N)C(=O)N[C@@H](CCC(=O)O)C(=O)O)cc2)c1")
"84 µM"
>>> experimental_value("Cc1ccc(F)c(NC(=O)Nc2ccc(-c3cccc4c3c(N)nn4C(=O)CCCCCCCCCCCNC(=O)C[C@H](N)C(=O)N[C@@H](CCC(=O)O)C(=O)O)cc2)c1")
"22.5 µM"
